Test: chemical genetic growth profiling, strain panel (AID 1159580);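 further: tested at 20 µM; growth read once vehicle control cultures reached saturation at 30 °C; 1 = growth at the plate median or of vehicle wells; lower values mean less growth of the strain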
Conditions: S. cerevisiae deletion strains, growth OD, locus YPL106C, strain sse1, active compounds read low
Screen size: about 5,500 compounds; about 2,000 (36%) were called active. Another 18% or so got no clear call; they are omitted. This is one part of the list.
reportedMetric: normalized growth

compound="NC(C(=O)O)C(O)C(=O)O (configuration not stated)" reportedmetric="normalized growth" assayvalue=0.954
compound="C[C@]12C=CC(=O)C=C1CCC1C2[C@@H](O)C[C@@]2(C)C1CC[C@]2(O)C(=O)CO (some centres not stated)" reportedmetric="normalized growth" assayvalue=1.02
compound="O=C(O)C(O)C(O)C(=O)O (configuration not stated)" reportedmetric="normalized growth" assayvalue=0.976
compound=C1N2CN3CN1CN(C2)C3 reportedmetric="normalized growth" assayvalue=0.967
compound="CN(C)CCC(c1ccccc1)c1ccccn1 (configuration not stated)" reportedmetric="normalized growth" assayvalue=1
compound=CC(C)(S)[C@@H](N)C(=O)O reportedmetric="normalized growth" assayvalue=1.03
compound=N[C@@H](C(=O)O)[C@@H](O)[C@H](O)[C@H](O)CO reportedmetric="normalized growth" assayvalue=1.01
